For each entry below, report its NMB-R Transfected Cells [^3H]IP Plus NMB (3 nM) value.
Target: NMB Receptor (Rattus norvegicus, UniProt P24053)
Construct: a full length NMB-preferring bombesin receptor clone generated from rat esophagus; expressed in transfected cells; host or cells: BALB 3T3 cells
Sequence (P24053 1-390): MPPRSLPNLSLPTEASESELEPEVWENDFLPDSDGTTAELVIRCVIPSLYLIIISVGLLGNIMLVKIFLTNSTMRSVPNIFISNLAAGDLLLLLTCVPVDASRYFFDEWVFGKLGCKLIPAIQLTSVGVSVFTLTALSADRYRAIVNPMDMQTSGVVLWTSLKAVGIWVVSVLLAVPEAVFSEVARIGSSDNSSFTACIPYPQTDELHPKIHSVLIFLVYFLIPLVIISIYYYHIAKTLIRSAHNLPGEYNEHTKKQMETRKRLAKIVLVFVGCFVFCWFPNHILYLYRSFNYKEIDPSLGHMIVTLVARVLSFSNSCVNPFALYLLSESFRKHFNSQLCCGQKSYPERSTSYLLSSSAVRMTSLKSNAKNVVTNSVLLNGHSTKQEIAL
Test: [3H]inositol phosphates (IP) in NMB-R transfected cells
Assay type: cell-based
Conditions: analog 10 µM plus NMB 3 nM; NMB without analog 186 ± 58
Where a SMILES comes first, the peptide text is derived from it. Bridges are numbered along the chain shown (N, C = ends). [ ]: non-standard residue; d: D form. 2Nal = N[C@@H](Cc1ccc2ccccc2c1)C(=O)O; d2Nal = N[C@H](Cc1ccc2ccccc2c1)C(=O)O; Lys(iPr) = CC(C)NCCCC[C@H](N)C(=O)O
Kindly provide the numeric value in dpm x 10^3 only, without the unit symbol.

Note to self: NMB-R Transfected Cells [^3H]IP Plus NMB (3 nM) recorded for CC(C)[C@@H]1NC(=O)[C@H](CCCCN)NC(=O)[C@@H](Cc2ccc3ccccc3c2)NC(=O)[C@H](Cc2ccc(O)cc2)NC(=O)[C@@H](NC(=O)[C@H](N)Cc2ccc3ccccc3c2)CSSC[C@@H](C(=O)N[C@@H](Cc2ccc3ccccc3c2)C(N)=O)NC1=O [Analog #17, [D-Nal^4]-cyclo SS-octa] (H-[d2Nal]CY[d2Nal]KVC[2Nal]-NH2; disulfide 2-7; N-terminus assumed) was 15

CC(C)[C@@H]1NC(=O)[C@H](CCCCN)NC(=O)[C@@H](Cc2c[nH]c3ccccc23)NC(=O)[C@H](Cc2ccc(O)cc2)NC(=O)[C@@H](NC(=O)[C@H](N)Cc2ccc3ccccc3c2)CSSC[C@@H](C(=O)N[C@@H](Cc2ccc3ccccc3c2)C(N)=O)NC1=O [Analog #1, D-Nal-Cys-Tyr-D-Trp-Lys-Val-Cys-Nal-NH2] (H-[d2Nal]CY[dW]KVC[2Nal]-NH2; disulfide 2-7; N-terminus assumed) has a reported NMB-R Transfected Cells [^3H]IP Plus NMB (3 nM) of 8

The recorded NMB-R Transfected Cells [^3H]IP Plus NMB (3 nM) for CC(C)[C@@H]1NC(=O)[C@H](CCCCN)NC(=O)[C@@H](Cc2c[nH]c3ccccc23)NC(=O)[C@H](Cc2ccc(O)cc2)NC(=O)[C@@H](NC(=O)[C@H](N)Cc2ccc3ccccc3c2)CSSC[C@H](C(=O)N[C@@H](Cc2ccc3ccccc3c2)C(N)=O)NC1=O [Analog #11, [D-Cys^7]-cyclo SS-octa] (H-[d2Nal]CY[dW]KV[dC][2Nal]-NH2; disulfide 2-7; N-terminus assumed) is 7

CC(C)NCCCC[C@@H]1NC(=O)[C@@H](Cc2c[nH]c3ccccc23)NC(=O)[C@H](Cc2ccc(O)cc2)NC(=O)[C@@H](NC(=O)[C@H](N)Cc2ccccc2)CSSC[C@@H](C(=O)N[C@@H](Cc2ccc3ccccc3c2)C(N)=O)NC(=O)[C@H]([C@@H](C)O)NC1=O [Analog #15] (H-[dF]CY[dW][Lys(iPr)]TC[2Nal]-NH2; disulfide 2-7; N-terminus assumed) has a reported NMB-R Transfected Cells [^3H]IP Plus NMB (3 nM) of 67

Reported NMB-R Transfected Cells [^3H]IP Plus NMB (3 nM) for C[C@@H](O)[C@H](NC(=O)[C@@H]1CSSC[C@H](NC(=O)[C@H](N)Cc2ccc3ccccc3c2)C(=O)N[C@@H](Cc2ccccc2)C(=O)N[C@H](Cc2c[nH]c3ccccc23)C(=O)N[C@@H](CCCCN)C(=O)N[C@@H]([C@@H](C)O)C(=O)N1)C(N)=O [Analog #18, [Phe^3, Thr^6,8]-cycle SS-octa] (H-[d2Nal]CF[dW]KTCT-NH2; disulfide 2-7) was 143

Notebook: NCCCC[C@@H]1NC(=O)[C@@H](Cc2c[nH]c3ccccc23)NC(=O)[C@H](Cc2ccc(O)cc2)NC(=O)[C@@H](NC(=O)[C@H](N)Cc2ccc3ccccc3c2)CSSC[C@@H](C(=O)N[C@@H](Cc2ccc3ccccc3c2)C(N)=O)NC(=O)[C@H](Cc2ccc3ccccc3c2)NC1=O [Analog #3, [Nal^6]-cyclo SS-octa] (H-[d2Nal]CY[dW]K[2Nal]C[2Nal]-NH2; disulfide 2-7) , NMB-R Transfected Cells [^3H]IP Plus NMB (3 nM) read as 65

Per the records, this molecule ( C[C@@H](O)[C@@H]1NC(=O)[C@H](CCCCN)NC(=O)[C@@H](Cc2c[nH]c3ccccc23)NC(=O)[C@H](Cc2ccc(O)cc2)NC(=O)[C@@H](NC(=O)[C@H](N)Cc2ccccc2)CSSC[C@@H](C(=O)N[C@@H](Cc2ccc3ccccc3c2)C(N)=O)NC1=O [Analog #7, [D-Phe^1, Thr^6]-cyclo-SS-octa] (H-[dF]CY[dW]KTC[2Nal]-NH2; disulfide 2-7; N-terminus assumed) ) has NMB-R Transfected Cells [^3H]IP Plus NMB (3 nM) equal to 99

Entry CC(C)[C@@H]1NC(=O)[C@H](CCCCN)NC(=O)[C@@H](Cc2c[nH]c3ccccc23)NC(=O)[C@H](Cc2ccc(O)cc2)NC(=O)[C@@H](NC(=O)[C@H](N)Cc2ccc3ccccc3c2)CSSC[C@@H](C(=O)N[C@H](Cc2ccc3ccccc3c2)C(N)=O)NC1=O [Analog #8, [D-Nal^8]-cyclo SS-octa] (H-[d2Nal]CY[dW]KVC[d2Nal]-NH2; disulfide 2-7; N-terminus assumed) ; NMB-R Transfected Cells [^3H]IP Plus NMB (3 nM) = 67

Noted for CC(C)[C@@H]1NC(=O)[C@H](Cc2c[nH]cn2)NC(=O)[C@@H](Cc2c[nH]c3ccccc23)NC(=O)[C@H](Cc2ccc(O)cc2)NC(=O)[C@@H](NC(=O)[C@H](N)Cc2ccc3ccccc3c2)CSSC[C@@H](C(=O)N[C@@H](Cc2ccc3ccccc3c2)C(N)=O)NC1=O [Analog #14, [His^5]-cyclo SS-octa] (H-[d2Nal]CY[dW]HVC[2Nal]-NH2; disulfide 2-7; N-terminus assumed) : its NMB-R Transfected Cells [^3H]IP Plus NMB (3 nM) reads 97

Value of measured NMB-R Transfected Cells [^3H]IP Plus NMB (3 nM) for the entry CC(C)[C@@H]1NC(=O)[C@H](CCCCN)NC(=O)[C@@H](Cc2c[nH]c3ccccc23)NC(=O)[C@H](Cc2ccc(O)cc2)NC(=O)[C@@H](NC(=O)[C@@H](N)Cc2ccc3ccccc3c2)CSSC[C@@H](C(=O)N[C@H](Cc2ccc3ccccc3c2)C(N)=O)NC1=O [Analog #9, [Nal^1,D-Nal^8]-cyclo SS-octa] (H-[2Nal]CY[dW]KVC[d2Nal]-NH2; disulfide 2-7; N-terminus assumed) : 28

Sure, the documented NMB-R Transfected Cells [^3H]IP Plus NMB (3 nM) for CC(C)[C@@H]1NC(=O)[C@H](CCCCN)NC(=O)[C@@H](Cc2c[nH]c3ccccc23)NC(=O)[C@H](Cc2ccc(O)cc2)NC(=O)[C@@H](NC(=O)[C@H](N)Cc2ccccc2)CSSC[C@@H](C(=O)N[C@@H](Cc2ccc3ccccc3c2)C(N)=O)NC1=O [Analog #4, [D-Phe^1]-cyclo SS-octa] (H-[dF]CY[dW]KVC[2Nal]-NH2; disulfide 2-7; N-terminus assumed) is 33

###

Target: NMB Receptor (Rattus norvegicus, UniProt P24053)
Construct: a full length NMB-preferring bombesin receptor clone generated from rat esophagus; expressed in transfected cells; host or cells: BALB 3T3 cells
Test: [3H]inositol phosphates (IP) in NMB-R transfected cells
Assay type: cell-based
Details: analog 10 µM alone; no-additive control 13 ± 3
metric: NMB-R Transfected Cells [^3H]IP Alone (10 µ M) (dpm x 10^3)
// return numeric value only (unit: dpm x 10^3, not printed)

Kindly note the recorded NMB-R Transfected Cells [^3H]IP Alone (10 µ M) for C[C@@H](O)[C@H](NC(=O)[C@@H]1CSSC[C@H](NC(=O)[C@H](N)Cc2ccc3ccccc3c2)C(=O)N[C@@H](Cc2ccc(O)cc2)C(=O)N[C@H](Cc2c[nH]c3ccccc23)C(=O)N[C@@H](CCCCN)C(=O)N[C@@H]([C@@H](C)O)C(=O)N1)C(N)=O [Analog #6, [Thr^6,8]-cyclo-SS-octa] , which is 11
